target: panel of more than 300 wild-type and mutant kinases (313 kinase panel) (Homo sapiens); assay: Kinase profiling in a biochemical assay panel (mobility shift assays and ELISA), %-inhibition at 1 μM; selectivity entropy; details: kinase WEE1; compound at 1 μM
measured.endpoint: %-inhibition of WEE1 (%)
Answers are plain numbers, in %.

# example entries with known answers
sample.smiles: COc1cc2c(Nc3ccc(Br)cc3F)ncnc2cc1OCC1CCN(C)CC1
%-inhibition of WEE1, %: 1.73
//
sample.smiles: CS(=O)(=O)CCNCc1ccc(-c2ccc3ncnc(Nc4ccc(OCc5cccc(F)c5)c(Cl)c4)c3c2)o1
%-inhibition of WEE1, %: 8
//
sample.smiles: CCCS(=O)(=O)Nc1ccc(F)c(C(=O)c2c[nH]c3ncc(-c4ccc(Cl)cc4)cc23)c1F
%-inhibition of WEE1, %: -1.64

Q. Look up and state reported %-inhibition of WEE1 for COc1cc(Nc2c(C#N)cnc3cc(OCCCN4CCN(C)CC4)c(OC)cc23)c(Cl)cc1Cl
A. 98

---

target: panel of more than 300 wild-type and mutant kinases (313 kinase panel) (Homo sapiens, UniProt Q9H2X6); assay: Kinase profiling in a biochemical assay panel (mobility shift assays and ELISA), %-inhibition at 1 μM; selectivity entropy; conditions: kinase HIPK2; compound at 1 μM
For each record, write down the corresponding %-inhibition of HIPK2.
One number for each entry, in %.

# example entries with known answers
molecule: COc1cc2nccc(Oc3ccc(NC(=O)C4(C(=O)Nc5ccc(F)cc5)CC4)cc3)c2cc1OC [cabozantinib]
%-inhibition of HIPK2 / %: 60

molecule: CC(=O)Nc1cccc(-n2c(=O)n(C3CC3)c(=O)c3c(Nc4ccc(I)cc4F)n(C)c(=O)c(C)c32)c1
%-inhibition of HIPK2 / %: 0.155

I need %-inhibition of HIPK2 for every entry listed below, if you could help.
1. Cc1nc(Nc2ncc(C(=O)Nc3c(C)cccc3Cl)s2)cc(N2CCN(CCO)CC2)n1
2. CO[C@H]1C[C@@H]2CC[C@@H](C)[C@@](O)(O2)C(=O)C(=O)N2CCCC[C@H]2C(=O)O[C@H]([C@H](C)C[C@@H]2CC[C@@H](OCCO)[C@H](OC)C2)CC(=O)[C@H](C)/C=C(\C)[C@@H](O)[C@@H](OC)C(=O)[C@H](C)C[C@H](C)/C=C/C=C/C=C/1C

A.
[6, -6]

---

target: panel of more than 300 wild-type and mutant kinases (313 kinase panel) (Homo sapiens, UniProt P22455, V550L); test: Kinase profiling in a biochemical assay panel (mobility shift assays and ELISA), %-inhibition at 1 μM; selectivity entropy; conditions: kinase FGFR4(V550L); compound at 1 μM
Sequence (P22455 22-802 V550L): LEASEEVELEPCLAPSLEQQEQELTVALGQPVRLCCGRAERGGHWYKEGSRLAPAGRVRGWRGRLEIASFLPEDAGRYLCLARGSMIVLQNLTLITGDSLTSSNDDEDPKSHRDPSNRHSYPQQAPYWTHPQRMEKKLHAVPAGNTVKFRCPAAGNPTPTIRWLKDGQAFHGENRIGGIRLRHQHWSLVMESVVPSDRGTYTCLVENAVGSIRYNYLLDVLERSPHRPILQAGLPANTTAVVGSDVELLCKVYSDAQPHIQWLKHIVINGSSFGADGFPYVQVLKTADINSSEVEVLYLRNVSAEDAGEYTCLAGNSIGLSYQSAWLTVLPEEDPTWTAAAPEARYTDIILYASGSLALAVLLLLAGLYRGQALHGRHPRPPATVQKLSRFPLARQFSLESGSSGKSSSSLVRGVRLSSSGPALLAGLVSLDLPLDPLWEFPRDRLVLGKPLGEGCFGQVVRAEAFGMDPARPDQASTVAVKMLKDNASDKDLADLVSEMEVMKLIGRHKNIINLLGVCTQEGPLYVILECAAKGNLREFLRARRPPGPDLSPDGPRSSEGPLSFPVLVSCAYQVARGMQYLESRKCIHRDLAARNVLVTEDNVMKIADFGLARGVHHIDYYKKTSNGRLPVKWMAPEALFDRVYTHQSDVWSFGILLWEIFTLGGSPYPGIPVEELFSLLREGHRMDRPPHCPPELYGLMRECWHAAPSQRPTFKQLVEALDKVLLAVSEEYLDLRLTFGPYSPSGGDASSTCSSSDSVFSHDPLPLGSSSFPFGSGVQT
measured.endpoint: %-inhibition of FGFR4(V550L) (%)
Answers are plain numbers, in %.

sample.smiles: COc1cc2c(Nc3ccc(Br)cc3F)ncnc2cc1OCC1CCN(C)CC1
%-inhibition of FGFR4(V550L), %: -4.72
//
sample.smiles: CNC(=O)c1cc(Oc2ccc(NC(=O)Nc3ccc(Cl)c(C(F)(F)F)c3)c(F)c2)ccn1
%-inhibition of FGFR4(V550L), %: 3.37
//
sample.smiles: CO[C@H]1C[C@@H]2CC[C@@H](C)[C@@](O)(O2)C(=O)C(=O)N2CCCC[C@H]2C(=O)O[C@H]([C@H](C)C[C@@H]2CC[C@@H](OCCO)[C@H](OC)C2)CC(=O)[C@H](C)/C=C(\C)[C@@H](O)[C@@H](OC)C(=O)[C@H](C)C[C@H](C)/C=C/C=C/C=C/1C
%-inhibition of FGFR4(V550L), %: -10
//
sample.smiles: C[C@@H](Oc1cc(-c2cnn(C3CCNCC3)c2)cnc1N)c1c(Cl)ccc(F)c1Cl
%-inhibition of FGFR4(V550L), %: 0.45

Q. Look up and state reported %-inhibition of FGFR4(V550L) for CO[C@H]1C[C@@H]2CC[C@@H](C)[C@@](O)(O2)C(=O)C(=O)N2CCCC[C@H]2C(=O)O[C@H]([C@H](C)C[C@@H]2CC[C@@H](OC(=O)C(C)(CO)CO)[C@H](OC)C2)CC(=O)[C@H](C)/C=C(\C)[C@@H](O)[C@@H](OC)C(=O)[C@H](C)C[C@H](C)/C=C/C=C/C=C/1C
A. -8.55
